# Target System: Voltage-gated potassium channel subunit beta-2 (Rattus norvegicus) (UniProt P62483)
# Sequence (P62483 whole entry, looked up): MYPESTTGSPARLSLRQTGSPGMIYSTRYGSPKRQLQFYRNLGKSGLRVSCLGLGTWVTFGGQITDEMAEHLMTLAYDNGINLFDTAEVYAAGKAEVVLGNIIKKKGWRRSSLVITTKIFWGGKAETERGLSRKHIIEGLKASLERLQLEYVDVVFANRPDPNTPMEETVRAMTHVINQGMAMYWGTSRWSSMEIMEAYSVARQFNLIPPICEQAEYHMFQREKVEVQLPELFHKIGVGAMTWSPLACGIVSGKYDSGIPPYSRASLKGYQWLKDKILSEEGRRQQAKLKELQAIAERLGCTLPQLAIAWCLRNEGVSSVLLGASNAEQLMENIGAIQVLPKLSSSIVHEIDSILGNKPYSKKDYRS
# Test Summary: KvBeta positive modulators, primary screen, biochemical, NADPH fluorescence (AID 623);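 also: fluorescence intensity change per second fitted from 20 to 320 s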
# Condition Set: Recombinant KvBeta, NADPH fluorescence decrease slope, 10 min; at 10 µM; stronger effect = lower value
Measurement Name: NADPH fluorescence slope
Numbers only.

Please review the following examples before continuing.
{"columns": ["Compound", "Observed Value"],
 "data": [
  ["OCCOCCNc1ncnc2c1cnn2-c1ccccc1", "-1.3e-05"],
  ["CCCc1nnc(NC(=O)c2c(O)c3c([nH]c2=O)CCCC3)s1", "-3.6e-05"],
  ["CCSc1nc(N)c(C#N)c(-c2ccccc2Cl)c1C#N", -0.000189],
  ["Cn1c(=O)c2c(nc(Br)n2CCSc2ncccn2)n(C)c1=O", "-1.4e-05"],
  ["CCCCC[C@H](O)/C=C/C1=C(CCCCCCC(=O)O)C(=O)CC1", "-5.2e-05"]
]}

I have 6 compounds here; please give me NADPH fluorescence slope for each one.
1. CC(=O)c1cc(C#N)c(SCC(=O)C(C)(C)C)nc1C
2. NC(=O)c1cc(-c2ccccc2)nc(Oc2ccccc2)n1
3. c1cc(-c2nnc3sc(C4CCCCC4)nn23)ccn1
4. CCc1nnc(NC(=O)CSc2nc(C)c3c(c2C#N)CCCC3)s1
5. CN(C)CCNc1nc(-c2ccco2)c2c(c1C#N)CC(C)(C)OC2
6. CCCOC(=O)CSC1=C(C#N)C(c2ccccc2OCC)C(C#N)C(=O)N1 (configuration not stated)

A.
1. -1.9e-05
2. -8.3e-05
3. -0.00016
4. 4.7e-06
5. -5.5e-05
6. -0.000121

I have 6 compounds here; please give me NADPH fluorescence slope for each one.
1. COc1ccc(/C=C/C2=NC(=C\N(C)C)/C(=O)O2)cc1
2. O=C(NCc1ccccc1)c1ccc(=O)[nH]n1
3. COc1ccc(OC)c2c1CCC2=O
4. CCCCCCc1cc2cc(-c3nnc(-c4ccccc4O)o3)c(=O)oc2cc1O
5. O=C(O)CCNC(=O)c1ccccc1
6. C[C@]12C=CC(=O)C=C1CC[C@@H]1[C@@H]2[C@@H](O)C[C@@]2(C)[C@H]1CC[C@]2(O)C(=O)COC(=O)CCC(=O)O

A.
1. 4.9e-06
2. -0.00047
3. 8.5e-06
4. 5.9e-06
5. 2.2e-06
6. -8e-05
